Data credit: ChEMBL document CHEMBL4304743

# assay: Half-life in mouse at 1 mg/kg, iv measured after 2 to 720 mins by LC-tandem mass spectrometry analysis
# Type: ADME, organism-based
# assay setup: in vivo
readout type: half-life (h)
Only the number, expressed in h, is required.

Qu. Can you share its half-life? I mean this compound: O=C(CC(=O)Nc1ccc2c(/C=C/c3ccccn3)n[nH]c2c1)Nc1cccc(F)c1
Ans. 4.9

###

# tested on: Mast/stem cell growth factor receptor Kit (Homo sapiens, UniProt P10721)
# Sequence (P10721 whole entry, the tested form may be a part): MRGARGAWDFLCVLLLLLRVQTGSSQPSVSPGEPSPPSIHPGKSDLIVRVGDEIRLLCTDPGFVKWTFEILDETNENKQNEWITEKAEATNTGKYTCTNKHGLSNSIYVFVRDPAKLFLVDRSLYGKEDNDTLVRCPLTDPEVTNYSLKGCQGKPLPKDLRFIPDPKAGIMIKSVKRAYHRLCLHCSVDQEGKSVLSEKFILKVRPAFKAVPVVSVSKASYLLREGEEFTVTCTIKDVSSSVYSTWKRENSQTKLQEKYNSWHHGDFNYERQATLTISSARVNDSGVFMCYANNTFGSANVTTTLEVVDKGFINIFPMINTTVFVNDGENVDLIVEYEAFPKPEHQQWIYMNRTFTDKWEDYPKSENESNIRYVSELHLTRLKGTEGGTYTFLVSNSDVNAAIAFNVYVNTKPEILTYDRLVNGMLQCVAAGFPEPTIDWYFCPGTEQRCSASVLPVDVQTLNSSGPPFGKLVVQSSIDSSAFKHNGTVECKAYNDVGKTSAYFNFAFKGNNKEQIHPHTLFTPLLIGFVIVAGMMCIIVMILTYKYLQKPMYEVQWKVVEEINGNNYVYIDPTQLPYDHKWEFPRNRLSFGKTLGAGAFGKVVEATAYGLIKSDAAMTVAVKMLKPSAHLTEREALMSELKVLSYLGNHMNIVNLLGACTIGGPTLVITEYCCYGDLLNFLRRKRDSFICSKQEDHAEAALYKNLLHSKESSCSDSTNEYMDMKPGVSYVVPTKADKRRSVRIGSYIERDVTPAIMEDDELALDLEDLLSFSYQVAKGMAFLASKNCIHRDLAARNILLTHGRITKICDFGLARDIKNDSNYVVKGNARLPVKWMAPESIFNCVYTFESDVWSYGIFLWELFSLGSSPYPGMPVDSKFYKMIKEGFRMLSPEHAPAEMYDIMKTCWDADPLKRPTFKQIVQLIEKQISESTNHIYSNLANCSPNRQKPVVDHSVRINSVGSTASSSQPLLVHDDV
# assay: Inhibition of TEL fused wild type c-KIT (unknown origin) transfected in mouse BaF3 cells assessed as reduction in phosphorylation at Y719 residue after 2 hrs by Western blot analysis
# Type: cell-based
pEC50: −log10 of the molar value.
readout type: pEC50

Qu. Can you share its pEC50? I mean this molecule: O=C(CC(=O)Nc1ccc2c(/C=C/c3ccccn3)n[nH]c2c1)Nc1cccc(F)c1
Ans. < 6.00

###

The entries below come with measured GI50 at 72 h values attached.
# assay: Antiproliferative activity in mouse BAF3 cells after 72 hrs by CCK8 assay
# Format: cell-based
Only the number, expressed in µM, is required.

{"molecular string": "O=C(CC(=O)Nc1ccc2c(/C=C/c3ccccn3)n[nH]c2c1)Nc1cc(F)cc(F)c1", "unit text": "µM", "GI50 at 72 h": 4.24}

Now take the following molecule into account.
Qu. Can you share its GI50 at 72 h? I mean this molecule: O=C(CC(=O)Nc1ccc2c(/C=C/c3ccccn3)n[nH]c2c1)Nc1ccccc1
Ans. 6.72

###

# System: Mast/stem cell growth factor receptor Kit (Homo sapiens), P10721 [T670I]
# Sequence (P10721 whole entry T670I, the tested form may be a part): as the sequence (P10721 whole entry, the tested form may be a part) above, with T670I counted along it
# assay: Inhibition of TEL fused c-KIT T670I mutant (unknown origin) transfected in mouse BAF3 cells assessed as growth inhibition after 72 hrs by CCK8 assay
# Assay type: cell-based
Checkbox rule: GI50 lower than 300 nM = rule met; GI50 not lower than 300 nM = rule not met.

Consider the following illustrative entries.
{"molecular string": "O=C(CC(=O)Nc1ccc2cn[nH]c2c1)Nc1ccc(Cl)c(C(F)(F)F)c1", "tested on": "Mast/stem cell growth factor receptor Kit (Homo sapiens), P10721 [T670I]", "group": "rule not met"}
{"molecular string": "O=C(Nc1ccc(Cl)c(C(F)(F)F)c1)Nc1ccc2c(/C=C/c3ccccn3)n[nH]c2c1", "tested on": "Mast/stem cell growth factor receptor Kit (Homo sapiens), P10721 [T670I]", "group": "rule not met"}
{"molecular string": "CN1CCN(c2ccc(-c3n[nH]c4cc(NC(=O)CC(=O)Nc5ccc(Cl)c(C(F)(F)F)c5)ccc34)cc2)CC1", "tested on": "Mast/stem cell growth factor receptor Kit (Homo sapiens), P10721 [T670I]", "group": "rule met"}
{"molecular string": "O=C(Cc1ccc(Cl)c(C(F)(F)F)c1)Nc1ccc2c(/C=C/c3ccccn3)n[nH]c2c1", "tested on": "Mast/stem cell growth factor receptor Kit (Homo sapiens), P10721 [T670I]", "group": "rule not met"}
{"molecular string": "CN(C)c1cccc(NC(=O)CC(=O)Nc2ccc3c(/C=C/c4ccccn4)n[nH]c3c2)c1", "tested on": "Mast/stem cell growth factor receptor Kit (Homo sapiens), P10721 [T670I]", "group": "rule not met"}

Qu. In plain terms, does NC(=O)c1cccc(-c2n[nH]c3cc(NC(=O)CC(=O)Nc4ccc(Cl)c(C(F)(F)F)c4)ccc23)c1 come in under 300 nM for GI50?
Ans. rule not met

Qu. For O=C(CC(=O)Nc1ccc2c(/C=C/c3ccccn3)n[nH]c2c1)Nc1cccc(C(F)(F)F)c1 then?
Ans. rule met

Qu. For O=C(CC(=O)Nc1ccc2c(/C=C/c3ccccn3)n[nH]c2c1)Nc1ccc(Cl)c(C(F)(F)F)c1 then?
Ans. rule met

Qu. For O=C(CC(=O)Nc1ccccc1F)Nc1ccc2c(/C=C/c3ccccn3)n[nH]c2c1 then?
Ans. rule not met
